target: spike protein of live SARS-CoV-2 (2019-nCoV/IDF0372/2020) (SARS-CoV-2, UniProt P0DTC2 14-1273); test: cell-based or functional assay
Experimental readout: protection of Vero E6 cells from SARS-CoV-2 cytopathic effect

Take a look at these entries with their results.
{"Binder": "vS07_19G10 (designed binder, also called R2a) MRGSHHHHHHGSDLGNKLLDAAWVGQDDEVRILLAAGADVNAKDWQGETPLHLAATKGHLEIVEVLLKAGADVNAKDVVGYTPLHVAASQGHLEIVEVLLKAGADVNAQDVHGYTPADLAAQAGHEDIAEVLQKAA", "Recorded measurement": "100 nM"}
{"Binder": "vS07_29B10 (designed binder, also called R3b) MRGSHHHHHHGSDLGKKLLQAARAGQLDEVRELLKAGADVNAKDREGITPLHLAAQHGHLEIVEVLLKAGADVNAKDVWGRTPLHLAAWQGHLEIVEVLLKAGADVNAKDLAGATPLHVAALYGHLEIVEVLLKAGADVNAQDKSGKTPADLAARAGHQDIAEVLQKAA", "Recorded measurement": "20 nM"}
{"Binder": "vS07_23E04 (designed binder, also called R3c) MRGSHHHHHHGSDLGKKLLQAARAGQLDEVRELLKAGADVNAKDQEGITPLHVAAHQGHLEIVEVLLKAGADVNAKDVWGRTPLHLAAWRGHLEIVEVLLKAGADVNAKDHAGATPLHAAALSGHLEIVEVLLKAGADVNAQDKSGKTPADLAARAGHQDIAEVLQKAA", "Recorded measurement": "20 nM"}

Next:
Name the reported protection of Vero E6 cells from SARS-CoV-2 cytopathic effect value associated with the binder vS07_12C06 (designed binder, also called R1b; Rb1) MRGSHHHHHHGSDLGKKLLQAARAGQLDEVRELLKAGADVNAKDREGKTPLHVAAQEGHLEIVEVLLKAGADVNAKDVWGRTPLHLAAWIGHLEIVEVLLKAGADVNAKDVSGATPLHAAALHGHLEIVEVLLNAGADVNAQDKSGKTPADLAARAGHQDIAEVLQKAA
2 nM
